assayed_target: full length PDK1 (Homo sapiens)
Construct: Full-length human 3-Phosphoinositide Dependent protein Kinase-1; made in house; host or cells: baculovirus / Sf9 insect cells
Sequence (O15530 whole entry): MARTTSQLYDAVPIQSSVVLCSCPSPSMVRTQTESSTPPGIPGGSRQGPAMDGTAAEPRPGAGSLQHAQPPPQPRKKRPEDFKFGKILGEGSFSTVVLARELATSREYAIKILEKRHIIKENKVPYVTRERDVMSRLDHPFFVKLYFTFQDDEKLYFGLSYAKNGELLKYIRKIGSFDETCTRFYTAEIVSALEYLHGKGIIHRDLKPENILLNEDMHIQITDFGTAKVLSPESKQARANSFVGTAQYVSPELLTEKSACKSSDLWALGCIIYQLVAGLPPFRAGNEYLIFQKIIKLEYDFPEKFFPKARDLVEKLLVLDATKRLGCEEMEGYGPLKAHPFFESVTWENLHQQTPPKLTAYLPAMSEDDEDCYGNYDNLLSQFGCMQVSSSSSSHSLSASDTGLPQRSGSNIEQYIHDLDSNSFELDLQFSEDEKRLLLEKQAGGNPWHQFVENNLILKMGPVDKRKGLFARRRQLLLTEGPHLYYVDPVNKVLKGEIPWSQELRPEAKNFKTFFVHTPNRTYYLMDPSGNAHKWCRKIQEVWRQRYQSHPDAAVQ
measurement_description: PDK1 enzyme assays (substrate phosphorylation: LEADseeker scintillation proximity, TR-FRET, PDKtide)
Format: biochemical
test_context: in at least one experimental run, read-out: IC50 against full length PDK1
Protocol: Substrate phosphorylation assays are carried out as follows: […] The 39 amino acid biotinylated-PDKtide peptide Seq. […] The concentration was confirmed by quantitative amino acid analysis. […] Compounds, titrated in DMSO, are evaluated at eleven concentrations ranging from 50 μM to 2 μM. […] The data for compound concentration responses were plotted as % Inhibition, calculated with the data reduction formula 100*(1−[(U1−C2)/(C1−C2)]), versus concentration of compound, where […]
pIC50: −log10 of the molar value.
Listed below: pIC50 values for each entry.

Here is how some compounds turned out for pIC50.
- CNc1nc(-c2ccc3c(N)n[nH]c3c2)cc(N2C[C@@H](C(=O)NCc3ccccc3)CC[C@H]2C)n1 [Example 80]: > 7.70
- COc1cc(-c2cc(N3C[C@H](C)C[C@@H](NC(=O)OC(C)(C)C)C3)nc(N)n2)cc2[nH]nc(N)c12 [Example 214]: > 7.30
- CNc1nc(-c2cc(F)c3c(N)n[nH]c3c2)cc(N2C[C@@H](C(=O)NC3CCCCC3)CC[C@H]2C)n1 [Example 85]: > 7.70
- CNc1nc(-c2ccc3c(N)n[nH]c3c2)cc(N2C[C@@H](C(=O)NCc3ccccc3)OC[C@H]2C)n1 [Example 161]: > 7.70
- CC[C@@H]1CCCN1c1cc(-c2ccc3c(N)n[nH]c3c2)nc(N)n1 [Example 46]: > 6.82
- CCOc1cc(-c2cc(N3CCOC[C@H]3C(C)C)nc(N)n2)cc2[nH]nc(N)c12 [Example 199]: > 6.82

Pending compound:
Known value: full length PDK1 (Homo sapiens) pIC50 of the compound CC[C@@H]1COCCN1c1cc(-c2ccc3c(N)n[nH]c3c2)nc(NC)n1 [Example 177] equals > 6.82

* * *

assayed_target: full length PDK1 (Homo sapiens)
Construct: Full-length human 3-Phosphoinositide Dependent protein Kinase-1; made in house; host or cells: baculovirus / Sf9 insect cells
measurement_description: Scintillation Proximity (LEADseeker) kinase assay of purified hPDK1 using biotinylated-PDKtide peptide
Assay type: biochemical
test_context: in at least one experimental run; PDKtide substrate; read-out: IC50 against full length PDK1 using the PDKtide substrate assay
measurement_type: IC50 (nM)

Here is how some compounds turned out for IC50.
• Nc1nc(NC2(Cc3ccccc3)CC2)cc(-c2ccc3c(N)n[nH]c3c2)n1 [Example 61] = 10
• CC[C@@H]1CO[C@H](C(=O)NC2CCCCC2)CN1c1cc(-c2ccc3c(N)n[nH]c3c2)nc(N)n1 [Example 173] = 7.9

[1] CC[C@@H]1COCCN1c1cc(-c2ccc3c(N)n[nH]c3c2)nc(NC)n1 [Example 177]
[2] COc1cc(-c2cc(N3C[C@H](C)C[C@@H](NC(=O)OC(C)(C)C)C3)nc(N)n2)cc2[nH]nc(N)c12 [Example 214]
query: Returns the identifier with the smallest measured IC50 among 1 and 2 . Bench note: the answer is the label of the chosen record.
result: 2
(2: 2 nM, 1: 25 nM)

The measured values listed here are drawn from patent US8697685B2.
